measured_on: beta-catenin (human)
Sequence (B6V8E6 146-665 limits assumed): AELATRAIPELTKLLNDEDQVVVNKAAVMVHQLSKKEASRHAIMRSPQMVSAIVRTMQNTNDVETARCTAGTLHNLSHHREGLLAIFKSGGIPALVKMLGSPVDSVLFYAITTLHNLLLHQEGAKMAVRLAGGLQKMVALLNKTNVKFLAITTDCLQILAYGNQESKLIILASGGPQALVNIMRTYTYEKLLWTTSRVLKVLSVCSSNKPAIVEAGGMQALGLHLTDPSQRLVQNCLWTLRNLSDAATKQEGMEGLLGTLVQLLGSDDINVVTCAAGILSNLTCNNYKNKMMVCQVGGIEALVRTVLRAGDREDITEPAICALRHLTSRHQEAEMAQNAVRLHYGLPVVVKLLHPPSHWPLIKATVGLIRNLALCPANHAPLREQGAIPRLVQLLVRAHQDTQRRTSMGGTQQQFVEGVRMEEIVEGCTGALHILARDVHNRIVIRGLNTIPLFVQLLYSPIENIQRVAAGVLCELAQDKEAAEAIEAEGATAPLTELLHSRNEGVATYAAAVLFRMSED
procedure_details: fluorescence polarization
*1 amine or outer side, *2 acyl side, *3 side chain or, on linkers, in order; H or OH if unused. Bridges are numbered along the chain shown (N, C = ends). Primed or numbered codes have the meaning given here. [ ]: non-standard residue; d: D form. PyrS2″ = (S)-3-amino-1-((pent-4-en-1-yloxy)carbonyl)pyrrolidine-3-carboxylic acid (olefin stapling residue), C=CCCCOC(=O)N1CC[C@@](N[*:1])(C(=O)[*:2])C1; 2F3MeF″ = aromatic residue, Cc1cccc(C[C@H](N[*:1])C(=O)[*:2])c1F; Phe(3-COOH) = N[C@@H](Cc1cccc(C(=O)O)c1)C(=O)O; αAllylPro = C=CC[C@@]1(C(=O)O)CCCN1; tBuAla = CC(C)(C)C[C@H](N)C(=O)O; BztA″ = aromatic residue; GlnR = not defined here; B5 = not defined here; Aib = CC(C)(N)C(=O)O

binder | IC50
Ac-[αAllylPro]D[tBuAla][B5]D[Phe(3-COOH)][Aib]AFK[PyrS2″][2F3MeF″][BztA″][GlnR]LS-NH2 (bridge 10-14; not fully specified (bridges); printed as Ac-PL3-Asp-Npg-B5-Asp-3COOHF-Aib-Ala-Phe-Lys*3-PyrS2-2F3MeF-BztA-GlnR*3-Leu-Ser-NH2; reading uncertain; also: Lys10 and GlnR14 marked *3) [I-138] | < 50 nM
